Target: PRMT6 (Homo sapiens, UniProt Q96LA8)
Sequence (Q96LA8 whole entry, species assumed): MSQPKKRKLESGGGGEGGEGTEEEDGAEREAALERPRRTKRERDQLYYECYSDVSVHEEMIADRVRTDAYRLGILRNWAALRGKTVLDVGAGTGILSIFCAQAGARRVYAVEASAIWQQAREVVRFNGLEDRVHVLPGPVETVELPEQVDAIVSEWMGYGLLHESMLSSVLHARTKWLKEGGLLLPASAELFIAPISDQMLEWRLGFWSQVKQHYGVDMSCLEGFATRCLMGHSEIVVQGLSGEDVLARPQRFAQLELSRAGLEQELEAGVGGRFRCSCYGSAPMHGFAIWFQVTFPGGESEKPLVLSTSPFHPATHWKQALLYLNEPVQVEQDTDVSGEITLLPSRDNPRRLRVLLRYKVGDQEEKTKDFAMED
Test: radioactive assay (Reaction Biology Corp.), inhibition of PRMT6
Type: biochemical
measurement_name: inhibition at 10 µM (%)
Expressed in %, but write only the number.

### Prompt // returns reported inhibition at 10 µM for input N=C(NCCCSC[C@H]1O[C@@H](n2cnc3c(NCCCc4ccccc4)ncnc32)[C@H](O)[C@@H]1O)NC1CC1 [Compound 19b]
### Response 73

### Prompt // returns reported inhibition at 10 µM for input Nc1ncnc2c1ncn2[C@@H]1O[C@H](CSCCCNC(=O)NCCc2ccccc2)[C@@H](O)[C@H]1O
### Response 49

### Prompt // returns reported inhibition at 10 µM for input CCCCNC(=N)NCCCSC[C@H]1O[C@@H](n2cnc3c(NCCCc4ccccc4)ncnc32)[C@H](O)[C@@H]1O [Compound 19a]
### Response 84

### Prompt // returns reported inhibition at 10 µM for input Nc1ncnc2c1ncn2[C@@H]1O[C@H](CSCCOc2ccc(-c3ccccc3O)cc2)[C@@H](O)[C@H]1O [Compound 14g]
### Response 10

### Prompt // returns reported inhibition at 10 µM for input Nc1ncnc2c1ncn2[C@@H]1O[C@H](CSCCNCc2cccc(-c3ccncc3)c2)[C@@H](O)[C@H]1O [Compound 10k]
### Response 43

### Prompt // returns reported inhibition at 10 µM for input COc1cc2nc(-c3cccc(F)c3)nc(NCCSC[C@H]3O[C@@H](n4cnc5c(N)ncnc54)[C@H](O)[C@@H]3O)c2cc1OC [Compound 12c]
### Response 43

### Prompt // returns reported inhibition at 10 µM for input Nc1ncnc2c1ncn2[C@@H]1O[C@H](CSCCCNCc2cccc(-c3cccc(F)c3)c2)[C@@H](O)[C@H]1O [Compound 10q]
### Response 36
